system: A549; assay: Cytotoxicity against human A549 cells after 24 hrs by XTT assay; format: functional, cell-based; conditions: A549, 24 h
pIC50 for assorted molecules
Answer as the number alone; pIC50 is minus log10 of concentration in mol/L.

Data request: Give its pIC50 value. Item: C/C(=N\NC(=O)CSc1nnnn1C)c1cc(Cl)ccc1Cl
Data returned: 2.82

Data request: Give its pIC50 value. Item: Cn1nnnc1SCC(=O)N/N=C/c1cccc(F)c1
Data returned: 2.20

Further cases:
Data request: Give its pIC50 value. Item: Cn1nnnc1SCC(=O)N/N=C/c1ccc([N+](=O)[O-])cc1
Data returned: 3.20

Data request: Give its pIC50 value. Item: Cn1nnnc1SCC(=O)N/N=C/c1ccc(F)cc1
Data returned: 2.50

Data request: Give its pIC50 value. Item: C/C(=N\NC(=O)CSc1nnnn1C)c1ccc(Cl)cc1Cl
Data returned: 3.10

Data request: Give its pIC50 value. Item: C/C(=N\NC(=O)CSc1nnnn1C)c1ccc(Cl)cc1
Data returned: 2.22

Data request: Give its pIC50 value. Item: Cn1nnnc1SCC(=O)N/N=C/c1ccccc1Cl
Data returned: 2.20

Data request: Give its pIC50 value. Item: Cc1cccc(/C=N/NC(=O)CSc2nnnn2C)c1
Data returned: 2.70

Data request: Give its pIC50 value. Item: Cc1ccc(/C=N/NC(=O)CSc2nnnn2C)cc1
Data returned: 2.50

Data request: Give its pIC50 value. Item: Cn1nnnc1SCC(=O)N/N=C/c1ccc(Cl)cc1
Data returned: 4.00

###

assay: Genotoxicity against Salmonella typhimurium TA1535/pSK1002 assessed as induction ratio at 5 mg/ml by umuC assay in absence of S9 fraction; type: toxicity, organism-based; conditions: salmonella enterica subsp. enterica serovar typhimurium, Salmonella typhimurium TA1535/pSK1002 without S9 fraction
fold induction at 5 mg/ml for assorted compounds
Lab note: record just the number, no unit beside it.

Data request: Give its fold induction at 5 mg/ml value. Item: COc1ccc(/C=N/NC(=O)CSc2nnnn2C)cc1
Data returned: 0.763

Data request: Give its fold induction at 5 mg/ml value. Item: CN(C)c1ccc(/C=N/NC(=O)CSc2nnnn2C)cc1
Data returned: 0.565

Data request: Give its fold induction at 5 mg/ml value. Item: Cn1nnnc1SCC(=O)N/N=C/c1ccc(O)cc1
Data returned: 0.661

Data request: Give its fold induction at 5 mg/ml value. Item: Cn1nnnc1SCC(=O)N/N=C/c1ccccc1[N+](=O)[O-]
Data returned: 1.43

In the following, a different compound is considered.
Data request: Give its fold induction at 5 mg/ml value. Item: Cn1nnnc1SCC(=O)N/N=C/c1ccccc1F
Data returned: 0.321

###

MIC for assorted compounds
tested on: Nakaseomyces glabratus; assay: Antifungal activity against Candida glabrata Anadolu University clinical isolate after 24 hrs by microdilution susceptibility assay; type: functional

These recorded examples may help you get a feel for the data.
Data request: Give its MIC value. Item: Cn1nnnc1SCC(=O)N/N=C/c1cccc(Br)c1
Data returned: > 8000 µg/mL

Data request: Give its MIC value. Item: C/C(=N\NC(=O)CSc1nnnn1C)c1cccc(Cl)c1
Data returned: > 8000 µg/mL

Data request: Give its MIC value. Item: CC(C)c1ccc(/C=N/NC(=O)CSc2nnnn2C)cc1
Data returned: > 8000 µg/mL

Data request: Give its MIC value. Item: Cn1nnnc1SCC(=O)N/N=C/c1cccc(O)c1
Data returned: > 8000 µg/mL

Data request: Give its MIC value. Item: CN(C)c1ccc(/C=N/NC(=O)CSc2nnnn2C)cc1
Data returned: 50 µg/mL

In the following, a different compound is considered.
Data request: Give its MIC value. Item: Cn1nnnc1SCC(=O)N/N=C/c1ccccc1Cl
Data returned: > 8000 µg/mL

###

system: Salmonella typhimurium; assay: Genotoxicity against Salmonella typhimurium TA98 assessed as fold increase in revertants at 2.5 mg/ml after 90 mins by Ames MPF test in absence of S9 fraction relative to baseline; assay type: toxicity, organism-based; settings: salmonella enterica subsp. enterica serovar typhimurium, 1.5 h
fold change (FC) for assorted compounds
Lab note: record just the number, no unit beside it.

Data request: Recorded fold change (FC) for Cn1nnnc1SCC(=O)N/N=C/c1ccccc1[N+](=O)[O-] with Salmonella typhimurium, please?
Data returned: 1.96

Data request: Recorded fold change (FC) for COc1ccc(/C=N/NC(=O)CSc2nnnn2C)cc1 with Salmonella typhimurium, please?
Data returned: 0.33

###

test system: Salmonella typhimurium; experiment: Genotoxicity against Salmonella typhimurium TA100 assessed as fold increase in revertants at 0.625 mg/ml after 90 mins by Ames MPF test in presence of S9 fraction relative to baseline; format: toxicity, organism-based; conditions: salmonella enterica subsp. enterica serovar typhimurium, s9, 1.5 h
Criterion: fold change (FC) meeting or surpassing 0.7. Met: Fulfilled. Not met: Not fulfilled.

Study these solved cases before continuing.
Data request: Given COc1ccc(/C=N/NC(=O)CSc2nnnn2C)cc1 , state whether its fold change (FC) is at least 0.7.
Data returned: Fulfilled

Data request: Given CN(C)c1ccc(/C=N/NC(=O)CSc2nnnn2C)cc1 , state whether its fold change (FC) is at least 0.7.
Data returned: Not fulfilled

Data request: Given Cn1nnnc1SCC(=O)N/N=C/c1ccccc1F , state whether its fold change (FC) is at least 0.7.
Data returned: Not fulfilled

Let us examine a further case.
Data request: Given Cn1nnnc1SCC(=O)N/N=C/c1ccccc1[N+](=O)[O-] , state whether its fold change (FC) is at least 0.7.
Data returned: Fulfilled

###

system: Salmonella typhimurium; experiment: Genotoxicity against Salmonella typhimurium TA98 assessed as fold increase in revertants at 1.25 mg/ml after 90 mins by Ames MPF test in presence of S9 fraction relative to baseline; type: toxicity, organism-based; conditions: salmonella enterica subsp. enterica serovar typhimurium, s9, 1.5 h
PROPERTY_MEASURED: fold change (FC)
Lab note: record just the number, no unit beside it.

Data request: Give its fold change (FC) value. Item: Cn1nnnc1SCC(=O)N/N=C/c1ccccc1F
Data returned: 1.28

Further cases:
Data request: Give its fold change (FC) value. Item: CN(C)c1ccc(/C=N/NC(=O)CSc2nnnn2C)cc1
Data returned: 0.86

Data request: Give its fold change (FC) value. Item: COc1ccc(/C=N/NC(=O)CSc2nnnn2C)cc1
Data returned: 0.53

Data request: Give its fold change (FC) value. Item: Cn1nnnc1SCC(=O)N/N=C/c1ccccc1[N+](=O)[O-]
Data returned: 2

Data request: Give its fold change (FC) value. Item: Cn1nnnc1SCC(=O)N/N=C/c1ccc(O)cc1
Data returned: 0.63

###

test system: Salmonella typhimurium; experiment: Genotoxicity against Salmonella typhimurium TA100 assessed as fold increase in revertants at 1.25 mg/ml after 90 mins by Ames MPF test in absence of S9 fraction relative to baseline; format: toxicity, organism-based; settings: salmonella enterica subsp. enterica serovar typhimurium, 1.5 h
PROPERTY_MEASURED: fold change (FC)

These recorded examples may help you get a feel for the data.
Data request: Give its fold change (FC) value. Item: COc1ccc(/C=N/NC(=O)CSc2nnnn2C)cc1
Data returned: 0.2

Data request: Give its fold change (FC) value. Item: Cn1nnnc1SCC(=O)N/N=C/c1ccccc1[N+](=O)[O-]
Data returned: 1.33

Data request: Give its fold change (FC) value. Item: CN(C)c1ccc(/C=N/NC(=O)CSc2nnnn2C)cc1
Data returned: 1

Data request: Give its fold change (FC) value. Item: Cn1nnnc1SCC(=O)N/N=C/c1ccc(O)cc1
Data returned: 0.91

In the following, a different compound is considered.
Data request: Give its fold change (FC) value. Item: Cn1nnnc1SCC(=O)N/N=C/c1ccccc1F
Data returned: 0.29

###

fold change (FC) for assorted compounds
test system: Salmonella typhimurium; experiment: Genotoxicity against Salmonella typhimurium TA98 assessed as fold increase in revertants at 0.625 mg/ml after 90 mins by Ames MPF test in absence of S9 fraction relative to baseline; format: toxicity, organism-based; settings: salmonella enterica subsp. enterica serovar typhimurium, 1.5 h
Lab note: record just the number, no unit beside it.

These recorded examples may help you get a feel for the data.
Data request: Give its fold change (FC) value. Item: Cn1nnnc1SCC(=O)N/N=C/c1ccc(O)cc1
Data returned: 0.13

Data request: Give its fold change (FC) value. Item: COc1ccc(/C=N/NC(=O)CSc2nnnn2C)cc1
Data returned: 0.65

Further cases:
Data request: Give its fold change (FC) value. Item: Cn1nnnc1SCC(=O)N/N=C/c1ccccc1F
Data returned: 0.64

Data request: Give its fold change (FC) value. Item: Cn1nnnc1SCC(=O)N/N=C/c1ccccc1[N+](=O)[O-]
Data returned: 1.47

Data request: Give its fold change (FC) value. Item: CN(C)c1ccc(/C=N/NC(=O)CSc2nnnn2C)cc1
Data returned: 1.59

###

test system: A549; experiment: Cytotoxicity against human A549 cells after 24 hrs by XTT assay; format: functional, cell-based; conditions: A549, 24 h
IC50 for assorted compounds
Return type: number; implicit unit mM.

These recorded examples may help you get a feel for the data.
Data request: Recorded IC50 for CN(C)c1ccc(/C=N/NC(=O)CSc2nnnn2C)cc1 with A549, please?
Data returned: 0.1

Data request: Recorded IC50 for Cn1nnnc1SCC(=O)N/N=C/c1cccc(O)c1 with A549, please?
Data returned: 4.5

Data request: Recorded IC50 for Cn1nnnc1SCC(=O)N/N=C/c1ccccc1F with A549, please?
Data returned: 9

Data request: Recorded IC50 for Cn1nnnc1SCC(=O)N/N=C/c1cccc(Br)c1 with A549, please?
Data returned: 0.6

In the following, a different compound is considered.
Data request: Recorded IC50 for Cn1nnnc1SCC(=O)N/N=C/c1c(Cl)cccc1Cl with A549, please?
Data returned: 1
